Numbers sourced from patent US20150368338A1.

biological target: T1, IFN-αC (human, UniProt P01566 24-189); assay: ProteOn, one antigen concentration
T1 construct: also called IFN-α10; alpha C
readout-name: pKd
Reminder that pKd means the negative base-10 logarithm of the concentration expressed in mol/L.

The examples below pair each entry with its known result.
binder	readout-number
IFWM3331 (antibody, V domains shown, VH IFWH591, VL IFWL1073; converted mAb; also called IFWB3066) VH: EVQLVQSGAEVKKPGESLKISCKGSGYSFTSYWIGWVRQMPGKGLEWMGIIDPSDSDTRYSPSFQGQVTISADKSISTAYLQWSSLKASDTAMYYCARHPGLNWAPDFDYWGQGTLVTVSS VL: DIQMTQSPSSLSASVGDRVTITCRASQSIDNSYLNWYQQKPGKAPKLLIYGASSLQSGVPSRFSGSGSGTDFTLTISSLQPEDFATYYCQQGWDWPLTFGQGTKVEIK	10.92
IFWM3319 (antibody, V domains shown, VH IFWH591, VL IFWL1041; converted mAb; also called IFWB3054) VH: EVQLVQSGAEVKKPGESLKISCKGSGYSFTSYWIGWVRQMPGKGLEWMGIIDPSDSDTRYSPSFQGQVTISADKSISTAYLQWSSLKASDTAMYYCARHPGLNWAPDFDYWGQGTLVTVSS VL: DIQMTQSPSSLSASVGDRVTITCRASQSITGFLNWYQQKPGKAPKLLIYAASSLQSGVPSRFSGSGSGTDFTLTISSLQPEDFATYYCQQSHDFPLTFGQGTKVEIK	10.28

Q. Look up and report measured pKd for this entry: IFWM3342 (antibody, V domains shown, VH IFWH624, VL IFWL992; converted mAb; also called IFWB3077) VH: EVQLVQSGAEVKKPGESLKISCKGSGYSFTSYWIGWVRQMPGKGLEWMGIIDPSDSDTAYSPSFQGQVTISADKSISTAYLQWSSLKASDTAMYYCARHPGLNWAPDFDYWGQGTLVTVSS VL: DIQMTQSPSSLSASVGDRVTITCRASQSIGSFLNWYQQKPGKAPKLLIYFASSLQSGVPSRFSGSGSGTDFTLTISSLQPEDFATYYCQQSYSIPITFGQGTKVEIK
A. 9.85
